Each recorded value in this set is attributed to patent US20170320870A1.

# experimentalSystem: LRRK2 wild type (recombinant human, catalytic domain amino acids 970-2527, GST-tagged) (Homo sapiens, UniProt Q5S007)
# Construct: The wild type used was recombinant human, catalytic domain (amino acids 970-2527) GST-tagged, expressed in insect cells; GST
# Sequence (Q5S007 970-2527): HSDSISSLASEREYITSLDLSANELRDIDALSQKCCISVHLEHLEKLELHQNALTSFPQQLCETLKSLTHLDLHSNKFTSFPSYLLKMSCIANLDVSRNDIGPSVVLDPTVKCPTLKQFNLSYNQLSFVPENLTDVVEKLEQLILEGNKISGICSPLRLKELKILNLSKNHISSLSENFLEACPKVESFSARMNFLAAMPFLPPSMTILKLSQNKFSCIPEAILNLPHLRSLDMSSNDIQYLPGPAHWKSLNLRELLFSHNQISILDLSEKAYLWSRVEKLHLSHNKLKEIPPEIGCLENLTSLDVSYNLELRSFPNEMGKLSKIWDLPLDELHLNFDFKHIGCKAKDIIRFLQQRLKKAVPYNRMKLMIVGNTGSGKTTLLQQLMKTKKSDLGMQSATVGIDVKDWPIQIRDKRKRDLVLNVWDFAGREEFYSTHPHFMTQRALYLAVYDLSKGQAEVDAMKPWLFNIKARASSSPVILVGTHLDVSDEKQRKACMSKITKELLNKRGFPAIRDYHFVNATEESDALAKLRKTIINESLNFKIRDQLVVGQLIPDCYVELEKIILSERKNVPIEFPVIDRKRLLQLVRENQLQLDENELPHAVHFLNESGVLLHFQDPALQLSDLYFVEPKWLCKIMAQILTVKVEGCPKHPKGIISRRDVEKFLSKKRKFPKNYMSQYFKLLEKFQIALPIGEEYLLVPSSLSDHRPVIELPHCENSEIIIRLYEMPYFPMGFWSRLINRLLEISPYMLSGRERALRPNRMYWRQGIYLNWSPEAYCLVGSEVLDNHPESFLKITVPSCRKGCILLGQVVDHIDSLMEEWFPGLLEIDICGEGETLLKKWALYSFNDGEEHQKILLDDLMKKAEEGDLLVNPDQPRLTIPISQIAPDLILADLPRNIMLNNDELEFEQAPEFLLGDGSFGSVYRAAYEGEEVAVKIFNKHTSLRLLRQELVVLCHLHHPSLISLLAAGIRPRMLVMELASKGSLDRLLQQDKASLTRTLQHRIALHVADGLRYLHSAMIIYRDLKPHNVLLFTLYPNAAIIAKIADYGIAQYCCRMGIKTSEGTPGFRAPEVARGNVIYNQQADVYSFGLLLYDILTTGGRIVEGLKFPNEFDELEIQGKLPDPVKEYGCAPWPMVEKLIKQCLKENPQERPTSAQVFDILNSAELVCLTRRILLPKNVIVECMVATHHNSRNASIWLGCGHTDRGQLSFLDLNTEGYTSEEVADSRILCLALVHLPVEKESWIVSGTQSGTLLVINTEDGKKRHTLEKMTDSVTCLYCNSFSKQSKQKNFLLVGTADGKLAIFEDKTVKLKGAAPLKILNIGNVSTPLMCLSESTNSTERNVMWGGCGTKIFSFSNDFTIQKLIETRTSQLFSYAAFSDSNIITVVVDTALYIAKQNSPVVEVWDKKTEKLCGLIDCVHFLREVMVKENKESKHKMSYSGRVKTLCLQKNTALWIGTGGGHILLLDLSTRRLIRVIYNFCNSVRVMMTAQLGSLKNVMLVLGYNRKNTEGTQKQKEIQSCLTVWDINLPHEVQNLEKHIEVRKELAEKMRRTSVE
# testDetails: LRRK2 wild type protein kinase assay ([γ-33P] ATP, peptide substrate […]), IC50
# experimentalSetup: LRRK2 (variant not given); read-out: Potency score, LRRK2 IC50

>  <compound>
Cc1ccc(Nc2nccc3[nH]nc(C)c23)cn1 [Example 344]

>  <IC50>
1000 to 10000 nM

$$$$
>  <compound>
O=C1CCCN1c1n[nH]c2ccnc(NC3CCCCC3)c12 [Example 230]

>  <IC50>
1000 to 10000 nM

$$$$
>  <compound>
c1ccc2c(-c3n[nH]c4ccnc(NC5CCCCC5)c34)cncc2c1 [Example 164]

>  <IC50>
1000 to 10000 nM

$$$$
>  <compound>
Cc1n[nH]c2ccnc(O[C@@H]3CCC[C@H]3C)c12 (racemic) [Example 298]

>  <IC50>
< 100 nM

$$$$
>  <compound>
Cc1n[nH]c2ccnc(Nc3ccc(Cl)cc3Cl)c12 [Example 306]

>  <IC50>
100 to 1000 nM

$$$$
>  <compound>
c1cc2[nH]nc(-c3ccoc3)c2c(NC2CCCCC2)n1 [Example 147]

>  <IC50>
100 to 1000 nM

$$$$
>  <compound>
Cc1n[nH]c2ccnc(Nc3cccc(C(N)=O)c3)c12 [Example 76]

>  <IC50>
100 to 1000 nM

$$$$
>  <compound>
Cc1n[nH]c2ccnc(OC(C)C)c12 [Example 277]

>  <IC50>
< 100 nM

$$$$
>  <compound>
O=C(Nc1cccc(CCc2n[nH]c3ccnc(NC4CCCCC4)c23)c1)c1ccc(N2CCOCC2)cc1 [Example 227]

>  <IC50>
< 100 nM

$$$$
